Each recorded value in this set is attributed to patent US20240376123A1.

Record form. Attribute: IC50. Fill in for each entry.
system: LS513 (ATCC CRL-2134) cells; assay: KRAS G12D 2D CellTiter-Glo proliferation assay, LS513; assay type: cell-based; details: Homo sapiens, LS-513, 2D proliferation, 72 hours
The answer is to be given in nM; state only the numeric part.

IC50 reading for C#Cc1cccc2cccc(-c3nc4c5c(nc(OC[C@@]67CCCN6C[C@H](F)C7)nc5c3F)N3C[C@H]5CC[C@H](N5)[C@H]3CO4)c12 : 80

Entry C#Cc1c(F)ccc2cccc(-c3nc4c5c(nc(OC[C@@]67CCCN6C[C@H](F)C7)nc5c3F)N3CC5CCC(N5)[C@H]3CO4)c12 (single isomer, unassigned) , IC50 reported as 238

// sample CCc1c(F)ccc2cc(O)cc(-c3nc4c5c(nc(OC[C@@]67CCCN6C[C@H](F)C7)nc5c3F)N3C[C@H]5CC[C@H](N5)[C@H]3CO4)c12 , its IC50 was 25.2

IC50 reported for this compound Oc1cc(Cl)c(C2CC2)c(-c2nc3c4c(nc(OC[C@@]56CCCN5C[C@H](F)C6)nc4c2F)N2C[C@@H]4CC[C@@H](N4)C2CO3)c1 (stereo partly shown) : 93

---

system: AsPC-1 (ATCC CRL-1682) cells; test: KRAS G12D 3D CellTiter-Glo proliferation assay, AsPC-1; assay type: cell-based; conditions: Homo sapiens, ASPC1, 168 h; 3D proliferation, 7 days, CellTiter-Glo 3D
Exercise: state measured IC50 for each of the compounds provided.
Kindly format the answer as number then unit.

Recorded IC50 for C#Cc1c(F)ccc2cccc(-c3nc4c5c(nc(OC[C@@]67CCCN6C[C@H](F)C7)nc5c3F)N3CC5CCC(N5)[C@H]3CO4)c12 (single isomer, unassigned) on AsPC-1 (ATCC CRL-1682) cells was 48 nM

Short answer on AsPC-1 (ATCC CRL-1682) cells for Oc1cc(Cl)c(C2CC2)c(-c2nc3c4c(nc(OC[C@@]56CCCN5C[C@H](F)C6)nc4c2F)N2C[C@@H]4CC[C@@H](N4)C2CO3)c1 (stereo partly shown) , IC50: 8.7 nM

Entry C#Cc1cccc2cccc(-c3nc4c5c(nc(OC[C@@]67CCCN6C[C@H](F)C7)nc5c3F)N3C[C@H]5CC[C@H](N5)[C@H]3CO4)c12 under AsPC-1 (ATCC CRL-1682) cells had IC50 of 54 nM

GET /values?item= CCc1c(F)ccc2cc(O)cc(-c3nc4c5c(nc(OC[C@@]67CCCN6C[C@H](F)C7)nc5c3F)N3C[C@H]5CC[C@H](N5)[C@H]3CO4)c12 &system= AsPC-1 (ATCC CRL-1682) cells returns IC50: 4.7 nM

---

Tested on: p-ERK in PNAC-1/HPAC cell
Assay: Phospho-ERK 1/2 assay (Table 1)
Type: cell-based
Conditions: read-out: p-ERK IC50; PNAC-1/HPAC cell, 3 hours compound incubation
Method: Allow PNAC-1/HPAC cell growth in a T75 flask in DMEM and 10% 1 fetal calf serum (FCS; Gibco), using standard tissue culture procedures until ˜80% confluency is achieved. Day 1, seed 6000 cells/well in 384 well plate and incubate at 37° C., 5% CO2. Add diluted compound by Echo 550, final DMSO is 0.5%, incubate cells at 37° C., 5% CO2 for 3 hours. Then, remove medium and fix cells with 3.7% formaldehyde in PBS (PFA) by Apricot. Wash with PBS once. […]
Quantity: IC50 (nM)
Numbers only; they are read as nM.

Reported IC50 ( C#Cc1c(F)ccc2cccc(-c3nc4c5c(nc(OCC67CCCN6C(COC(=O)N(C)C)CC7)nc5c3F)N3CC5CCC(N5)[C@H]3CO4)c12 (stereo in doubt) [Compound 38] ) = 70

---

Could you please report measured IC50 for the items listed next?
tested on: GP2D (Cobioer CBP60010) cells; test: KRAS G12D 2D CellTiter-Glo proliferation assay, GP2D; assay type: cell-based; settings: 2D proliferation, 72 hours
Give a bare numeral; the unit nM is implied.

For Oc1cc(Cl)c(C2CC2)c(-c2nc3c4c(nc(OC[C@@]56CCCN5C[C@H](F)C6)nc4c2F)N2C[C@@H]4CC[C@@H](N4)C2CO3)c1 (stereo partly shown) on GP2D (Cobioer CBP60010) cells, measured IC50 was 2.2

# IC50 measured on GP2D (Cobioer CBP60010) cells for item CCc1c(F)ccc2cc(O)cc(-c3nc4c5c(nc(OC[C@@]67CCCN6C[C@H](F)C7)nc5c3F)N3C[C@H]5CC[C@H](N5)[C@H]3CO4)c12 = 1.2

The reported IC50 value, GP2D (Cobioer CBP60010) cells, for C#Cc1cccc2cccc(-c3nc4c5c(nc(OC[C@@]67CCCN6C[C@H](F)C7)nc5c3F)N3C[C@H]5CC[C@H](N5)[C@H]3CO4)c12 reads 23

Tested on GP2D (Cobioer CBP60010) cells, the item C#Cc1c(F)ccc2cccc(-c3nc4c5c(nc(OC[C@@]67CCCN6C[C@H](F)C7)nc5c3F)N3CC5CCC(N5)[C@H]3CO4)c12 (single isomer, unassigned) showed IC50 equal to 15

---

tested on: p-ERK in PNAC-1/HPAC cell; assay: Phospho-ERK 1/2 assay (Table 1); format: cell-based; details: Homo sapiens; PNAC-1/HPAC cell, 3 hours compound incubation; read-out: p-ERK IC50
Quantity: log10(IC50) (log10 of the value in nM)
// units: nM (pre-log); metric: IC50; scale: log10

Form field log10(IC50), entry Fc1ccc2cccc(-c3nc4c5c(nc(OC[C@@]67CCCN6C[C@H](F)C7)nc5c3F)N3C[C@@H]5CC[C@@H](N5)C3CO4)c2c1Cl (some centres unmarked) : 1.72

// C#Cc1c(F)ccc2cccc(-c3nc4c5c(nc(OCC6(CN7CCOC[C@H]7C)CC6)nc5c3F)N3C[C@H]5CC[C@H](N5)[C@H]3CO4)c12 : log10(IC50) value = 2.20

The reported value for Fc1c(-c2cccc3cccc(F)c23)nc2c3c(nc(OC[C@@]45CCCN4C[C@H](F)C5)nc13)N1C[C@@H]3CC[C@@H](N3)C1CO2 (some centres unmarked) in terms of log10(IC50) is 2.34

// sample C#Cc1c(F)ccc2cccc(-c3nc4c5c(nc(OCC6(CN7C8CCC7COC8)CC6)nc5c3F)N3CC5CCC(N5)[C@H]3CO4)c12 (stereo in doubt) , its log10(IC50) was 2.93

Short answer for Oc1cc(-c2nc3c4c(nc(OC[C@@]56CCCN5C[C@H](F)C6)nc4c2F)N2C[C@H]4CC[C@H](N4)[C@H]2CO3)c2cc(F)ccc2c1 : log10(IC50) was 1.23

log10(IC50) reading for Oc1cc(Cl)c(C2CC2)c(-c2nc3c4c(nc(OC[C@@]56CCCN5C[C@H](F)C6)nc4c2F)N2C[C@@H]4CC[C@@H](N4)C2CO3)c1 (some centres unmarked) : 0.85

Entry C#Cc1c(F)ccc2cccc(-c3nc4c5c(nc(OCC6(CN7CCOCC7)CC6)nc5c3F)N3C[C@H]5CC[C@H](N5)[C@H]3CO4)c12 , log10(IC50) reported as 2.19

Lab note: measured log10(IC50) of C#Cc1c(F)ccc2cc(O)cc(-c3nc4c5c(nc(OC[C@@]67CCCN6C[C@H](F)C7)nc5c3F)N3C[C@H]5CC[C@H](N5)[C@H]3CO4)c12 was 1.08

---

tested on: AsPC-1 (ATCC CRL-1682) cells; assay: KRAS G12D 2D CellTiter-Glo proliferation assay, AsPC-1; assay type: cell-based; conditions: Homo sapiens, ASPC1, 2D proliferation, 72 hours
Assignment: determine reported pIC50 for the given compounds.
# log scale: pIC50 equals minus log10 of the concentration in mol/L

Just so you know, measured pIC50 for C#Cc1cccc2cccc(-c3nc4c5c(nc(OC[C@@]67CCCN6C[C@H](F)C7)nc5c3F)N3C[C@H]5CC[C@H](N5)[C@H]3CO4)c12 [Compound 25] came out at 6.29

Input C#Cc1c(F)ccc2cccc(-c3nc4c5c(nc(OC[C@@]67CCCN6C[C@H](F)C7)nc5c3F)N3CC5CCC(N5)[C@H]3CO4)c12 (single isomer, unassigned) [Compound 10] . Output pIC50: 6.31

The compound Oc1cc(Cl)c(C2CC2)c(-c2nc3c4c(nc(OC[C@@]56CCCN5C[C@H](F)C6)nc4c2F)N2C[C@@H]4CC[C@@H](N4)C2CO3)c1 (stereo partly shown) [Compound 24] showed pIC50 equal to 7.15

Reported pIC50 ( CCc1c(F)ccc2cc(O)cc(-c3nc4c5c(nc(OC[C@@]67CCCN6C[C@H](F)C7)nc5c3F)N3C[C@H]5CC[C@H](N5)[C@H]3CO4)c12 [Compound 28] ) = 7.46
